Would you kindly list DILI_severity_class for each of these compounds?
Species on record: Homo sapiens
assayExplanation: Liver toxicity in human assessed as induction of drug-induced liver injury by measuring severity class index; note: key of the grades not given here
Keep it simple and answer with nothing but the number.

Look up DILI_severity_class for this compound: `CN1CCC(Nc2ncc3ncnc(Nc4ccc(F)c(Cl)c4)c3n2)CC1` 8

Try `CCC1=C[C@@H]2CN(C1)Cc1c([nH]c3ccccc13)[C@@](C(=O)OC)(c1cc3c(cc1OC)N(C)[C@H]1[C@@](O)(C(=O)OC)[C@H](OC(C)=O)[C@]4(CC)C=CCN5CC[C@]31[C@@H]54)C2` next. 3

Also check CN(C)CCC(c1ccc(Cl)cc1)c1ccccn1 (stereo not drawn) 0

Also check `CCN(CC)CCOC(=O)C1(C2CCCCC2)CCCCC1` 0

Do the same for CNC1=Nc2ccc(Cl)cc2C(c2ccccc2)=[N+]([O-])C1 [CHLORDIAZEPOXIDE] please 5

Cool, now CN1CCN(C(c2ccccc2)c2ccc(Cl)cc2)CC1 (stereo not drawn) 0

Param item: `CCOC(=O)C1=C[C@@H](OC(CC)CC)[C@H](NC(C)=O)[C@@H](N)C1` 3

Please do the same for `O=C1NC(=O)C(c2ccccc2)(c2ccccc2)N1` as well. 8

Then `CN(C)[C@@H]1C(O)=C(C(N)=O)C(=O)[C@@]2(O)C(O)=C3C(=O)c4c(O)cccc4[C@@](C)(O)[C@H]3[C@H](O)[C@@H]12` ? 2

Do the same for Nc1cccc2c1CN(C1CCC(=O)NC1=O)C2=O (stereo not drawn) [LENALIDOMIDE] please 3

Another compound to look at: `C[C@]12COC(=O)C[C@@H]1CC[C@@H]1[C@@H]2CC[C@@]2(C)[C@H]1CC[C@]2(C)O` 8

Also need CCCCNc1cc(C(=O)O)cc(S(N)(=O)=O)c1Oc1ccccc1 [BUMETANIDE] , thanks. 3

Now this one: `C=CCN1CC[C@]23c4c5ccc(O)c4O[C@H]2C(=O)CC[C@@]3(O)[C@H]1C5` 0

Now consider CC(C)NCC(O)COc1cccc2ccccc12 (stereo not drawn) . 3

Then CC(O)(CS(=O)(=O)c1ccc(F)cc1)C(=O)Nc1ccc(C#N)c(C(F)(F)F)c1 (stereo not drawn) [BICALUTAMIDE] ? 8

Now this one: CC(=O)N1CCN(c2ccc(OCC3COC(Cn4ccnc4)(c4ccc(Cl)cc4Cl)O3)cc2)CC1 (stereo not drawn) 8

One more compound: NC(=O)OCC(COC(N)=O)c1ccccc1 [FELBAMATE] 7

Thanks! And `CCOc1ccccc1OCCN[C@H](C)Cc1ccc(OC)c(S(N)(=O)=O)c1` ? 0

====

What DILI_severity_class was measured for each of the following?
Organism: Homo sapiens
assayExplanation: Liver toxicity in human assessed as induction of drug-induced liver injury by measuring severity class index
Respond using a number only.

Quick one: DILI_severity_class for COc1ccccc1OCC(O)CN1CCN(CC(=O)Nc2c(C)cccc2C)CC1 (centres undefined) ? 0

Now the same for O=C(OCC(O)CO)c1ccccc1Nc1ccnc2cc(Cl)ccc12 (centres undefined) 8

Entry O=C([O-])O.[Na+] [SODIUM BICARBONATE] please 0

Now the same for `Cc1nnc(C(C)C)n1[C@@H]1C[C@H]2CC[C@@H](C1)N2CC[C@H](NC(=O)C1CCC(F)(F)CC1)c1ccccc1` 3

Same question, `CN1C(=O)CN=C(c2ccccc2)c2cc(Cl)ccc21` this time 4

// next record `COc1ccc2cc([C@H](C)C(=O)O)ccc2c1` 3

Again, but for CC(C)(C(=O)O)c1ccc(C(O)CCCN2CCC(C(O)(c3ccccc3)c3ccccc3)CC2)cc1 (centres undefined) [FEXOFENADINE] 0

Continue with `OC[C@H]1O[C@@H](O[C@@H]2[C@@H](CO)O[C@](O)(CO)[C@H]2O)[C@H](O)[C@@H](O)[C@H]1O` 0

Also `S=P(N1CC1)(N1CC1)N1CC1` ? 3

====

Organism: Homo sapiens
assayExplanation: Liver toxicity in human assessed as induction of drug-induced liver injury by measuring severity class index
Answer each item with its documented DILI_severity_class.
# output: bare number, no unit

Tell me the measured DILI_severity_class of CC(=O)O.CCNC(=O)[C@@H]1CCCN1C(=O)[C@H](CCCNC(=N)N)NC(=O)[C@H](CC(C)C)NC(=O)[C@@H](Cc1cn(Cc2ccccc2)cn1)NC(=O)[C@H](Cc1ccc(O)cc1)NC(=O)[C@H](CO)NC(=O)[C@H](Cc1c[nH]c2ccccc12)NC(=O)[C@H](Cc1cnc[nH]1)NC(=O)[C@@H]1CCC(=O)N1 [HISTRELIN ACETATE] , please. 3

Also Cc1ccsc1C(=CCCN1CCC[C@@H](C(=O)O)C1)c1sccc1C [TIAGABINE] ? 3

Input Cc1ccc(N(CC2=NCCN2)c2cccc(O)c2)cc1 [PHENTOLAMINE] 0

Also, CCOC(=O)c1ncn2c1CN(C)C(=O)c1cc(F)ccc1-2 [FLUMAZENIL] please. 0

====

Species on record: Homo sapiens
assayExplanation: Liver toxicity in human assessed as induction of drug-induced liver injury by measuring severity class index
Starred links: 1 amine or outer side, 2 acyl side, 3 side chain; linkers in the order of their positions; H or OH if unused. Positions of bridges follow the written chain, without caps; N, C: chain ends. Non-standard residues stand in square brackets, D forms with d. Residues, ends and D or L forms follow the SMILES beside them. Chains are numbered I, II in the order given. Actinocin(9to1) = Cc1c2oc3c(C)ccc(C(=O)[*:1])c3nc-2c(C(=O)[*:2])c(N)c1=O; NMeV = CN[C@H](C(=O)O)C(C)C; Sar = CNCC(=O)O
Assign class by DILI_severity_class: not lower than 3 means rule met; lower than 3 means rule not met.

Threshold query (DILI_severity_class >= 3) on Cc1cccc(CN2CCN(C(c3ccccc3)c3ccc(Cl)cc3)CC2)c1 (stereo not given) rule not met

Continue with `O=C1CCc2ccc(OCCCCN3CCN(c4cccc(Cl)c4Cl)CC3)cc2N1` rule met

// same read-out, input: `N=C(N)NCCN1CCCCCCC1` rule not met

// query: C[N+]1(C)CCC(OC(=O)C(O)(c2ccccc2)C2CCCC2)C1 (stereo not given) rule not met

Try this compound next: CC(N)C(=O)OC(C)(C)Cc1ccc(Cl)cc1 (stereo not given) [ALAPROCLATE] rule met

Please give the result for `O=P(O)(O)C(Sc1ccc(Cl)cc1)P(=O)(O)O` too. rule not met

And then `CCN(CC)C(=O)/C(C#N)=C/c1cc(O)c(O)c([N+](=O)[O-])c1` , what is it? rule not met

Could you do the same for Cc1c2oc3c(C)ccc(C(=O)N[C@@H]4C(=O)N[C@H](C(C)C)C(=O)N5CCC[C@H]5C(=O)N(C)CC(=O)N(C)[C@@H](C(C)C)C(=O)O[C@@H]4C)c3nc-2c(C(=O)N[C@@H]2C(=O)N[C@H](C(C)C)C(=O)N3CCC[C@H]3C(=O)N(C)CC(=O)N(C)[C@@H](C(C)C)C(=O)O[C@@H]2C)c(N)c1=O [DACTINOMYCIN] (I: T[dV]P[Sar][NMeV] / II: T[dV]P[Sar][NMeV]; ester I:1-I:C, II:1-II:C; linker I:N-II:N via Actinocin(9to1)) , please? rule met

And then `CC[C@H](C)C[C@H](C)CCCCCCCCC(=O)N[C@H]1C[C@@H](O)[C@@H](NCCN)NC(=O)[C@@H]2[C@@H](O)CCN2C(=O)[C@H]([C@H](O)CCN)NC(=O)[C@H]([C@H](O)[C@@H](O)c2ccc(O)cc2)NC(=O)[C@@H]2C[C@@H](O)CN2C(=O)[C@H]([C@@H](C)O)NC1=O` , what is it? rule met

Please give the result for `CC(=O)N[C@@H](CS)C(=O)O` too. rule not met

Similarly, `CCCCC(F)(F)[C@@]1(O)CC[C@H]2[C@@H](CC(=O)[C@@H]2CCCCCCC(=O)O)O1` ? rule not met

Next record, please: `CN[C@@H](C)[C@H](O)c1ccccc1` rule not met

Another: `Cc1ccc(NC(=O)c2ccc(CN3CCN(C)CC3)cc2)cc1Nc1nccc(-c2cccnc2)n1` rule met

Same read-out for `CCOC(=O)Nc1ccc2c(c1)N(C(=O)CCN1CCOCC1)c1ccccc1S2` ? rule met

Same read-out for CCCCNc1ccc(C(=O)OCCOCCOCCOCCOCCOCCOCCOCCOCCOC)cc1 [BENZONATATE] ? rule not met

Try C=CC[C@@H]1/C=C(\C)C[C@H](C)C[C@H](OC)[C@H]2O[C@@](O)(C(=O)C(=O)N3CCCC[C@H]3C(=O)O[C@H](/C(C)=C/[C@@H]3CC[C@@H](O)[C@H](OC)C3)[C@H](C)[C@@H](O)CC1=O)[C@H](C)C[C@@H]2OC [TACROLIMUS ANHYDROUS] next. rule met

Repeat for the following compound: `O=C(O)COC(=O)Cc1ccccc1Nc1c(Cl)cccc1Cl` rule not met

Same question for O=C(COc1ccc(Cl)cc1)N1CCN(Cc2ccc3c(c2)OCO3)CC1 [FIPEXIDE] please. rule met

Consider next the compound `Cc1cccc([C@H](C)c2cnc[nH]2)c1C` in the same way. rule met

Now try N#C[C@@H]1C[C@@H]2C[C@@H]2N1C(=O)[C@@H](N)C12CC3CC(CC(O)(C3)C1)C2 [SAXAGLIPTIN ANHYDROUS] . rule not met
